# System: trypsin
# assay.info: Stability of the compound assessed as trypsin (unknown origin)-mediated compound degradation at substrate/enzyme ratio of 1600/1 at 25 degC after 10 mins by HPLC analysis
# Assay type: ADME
# assay.setup: human, trypsin (unknown origin); read-out: Drug degradation
Positions of bridges follow the written chain, without caps; N, C: chain ends. Non-standard residues stand in square brackets, D forms with d. Residues, ends and D or L forms follow the SMILES beside them. R5 = C=CCCC[C@@](C)(N)C(=O)O
recorded.metric: metabolised at 10 min (%)
// note: answer is a bare numeric in %

**Query** Need metabolised at 10 min, item CC(=O)N[C@@H](CCCCN)C(=O)N[C@]1(C)CCC/C=C\CCC[C@](C)(C(=O)N[C@@H](CCCCN)C(=O)N[C@@H](CCCCN)C(=O)N[C@@H](C)C(=O)N[C@@H](C)C(=O)N[C@@H](CCCCN)C(=O)N[C@@H](C)C(=O)N[C@@H](C)C(=O)N[C@@H](Cc2c[nH]c3ccccc23)C(=O)N[C@@H](CCCCN)C(N)=O)NC(=O)[C@H](C)NC(=O)[C@H](CCCCN)NC(=O)[C@H](C)NC1=O (Ac-K[R5]AKA[R5]KKAAKAAWK-NH2; staple (Z) 2-6)
**Result** 73
